Biological target: GH (GH stock solution) (UniProt P01241)
Sequence (P01241 27-217 limits assumed): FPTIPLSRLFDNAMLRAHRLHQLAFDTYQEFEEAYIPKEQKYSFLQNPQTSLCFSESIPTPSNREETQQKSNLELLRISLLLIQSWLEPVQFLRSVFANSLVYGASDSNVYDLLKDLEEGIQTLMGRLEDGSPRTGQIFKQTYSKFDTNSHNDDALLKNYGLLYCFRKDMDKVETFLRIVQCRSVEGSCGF
Test: affinity chromatography, VHH-conjugated medium loaded with GH stock solution; medium in 0.5M NaOH 0h
Measurement type: dynamic binding capacity at 10% breakthrough

Please review the entries below; each comes with its answer.
1. M78 (Second round) (VHH, Entry already carries A57D; G134R; D102Y); tail DDDDK-SGGRGS-HHHHHH) VHH: QVQLVESGGGLAQAGGSLRLSCAVSGMPEFARAMGWFRQAPGKERELLAAIEGIGDTTYYADSVKGRFTISRDDAANTVLLQMNSLKPDDTAVYYCAAAFSVTIPTRARHWVYWGPGTLVTVSS = 16.3
2. WT (with tag), unmodified GH single-domain antibody molecule (VHH) VHH: QVQLVESGGGLAQAGGSLRLSCAVSGMPEFARAMGWFRQAPGKERELLAAIEGIGATTYYADSVKGRFTISRDDAANTVLLQMNSLKPDDTAVYYCAAAFSVTIPTRARHWVDWGPGTLVTVSS = 22.3

Next binder, dynamic binding capacity at 10% breakthrough to be filled in.
So for M68 (Second round) (VHH, Entry already carries A15P; R19T); tail DDDDK-SGGGGS-HHHHHH) VHH: QVQLVESGGGLAQPGGSLTLSCAVSGMPEFARAMGWFRQAPGKERELLAAIEGIGATTYYADSVKGRFTISRDDAANTVLLQMNSLKPDDTAVYYCAAAFSVTIPTRARHWVDWGPGTLVTVSS , the logged dynamic binding capacity at 10% breakthrough turned out to be 15.3

Where do these numbers come from? They come from patent EP4803541A1.
